measurement.target: Leucine aminopeptidase (Plasmodium falciparum (isolate 3D7))
method: P. falciparum M17LAP inhibitors, primary screen, biochemical, fluorogenic H-Leu-NHMec substrate, 1536-well (AID 1619);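 note: plate controls were full reaction with DMSO carrier for no effect and no enzyme background for full effect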
run.conditions: recombinant M17LAP, H-Leu-NHMec fluorogenic kinetic assay; at 30 µM; stronger effect = higher value
Among all 220,000 compounds or so, about 830 (0.38%) were called active. A selection follows. Results with a measured potency or affinity are listed apart.
measure.name: inhibition (%)

>>> df
                                    compound  unit_info  reported_measurement
 0  Cc1[nH]n(-c2ncc(-c3ccccc3)s2)c(=O)c1C(c1ccc(Cl)cc1)C(C#N)C#N (stereo not given)          %                  21.9
 1  COC(=O)CN1C(=O)C(O)(CC(=O)c2ccc(Cl)cc2)c2ccccc21 (stereo not given)          %                  12.1
 2            Cn1sc(NC(=O)c2ccc(Cl)cc2)nc1=O          %                  0.57
 3  CC(Sc1ncc(C#N)c(N)n1)C(=O)Nc1ccccc1 (stereo not given)          %                  9.93
 4  CCOC(=O)c1sc(NC(=O)C2C3C=CC(C3)C2C(=O)O)nc1C (stereo not given)          %                  3.83
 5            Cc1ccc(SCC(=O)NCCC2=CCCCC2)cc1          %                 -5.26
 6            Cn1sc(NC(=O)c2cccc(Cl)c2)nc1=O          %                  12.3
 7  Cc1ccc(C(=O)Nc2nc(=O)n(C(=O)c3ccccc3C)s2)cc1          %                  31.9
 8               O=C(Nc1nc2ccccc2s1)c1ccccc1          %                  0.27
 9  Cc1ccc(OCc2ccc(C(=O)NN)o2)c([N+](=O)[O-])c1          %                 -2.38
10  CCN(Cc1ccccc1)S(=O)(=O)c1ccc2c(c1)NC(=O)CC(=O)N2          %                  0.95
11  CCOc1ncccc1C(=O)OCC(=O)NCc1ccc2c(c1)OCO2          %                 -8.27
12              O=C(CSc1ncccn1)NCc1ccc(F)cc1          %                  2.25
13                   Cc1cccc(OCCSc2nncn2C)c1          %                 -2.41
14  Cc1ccc(Nc2nc(N)nc(CSc3nnc(-c4ccncc4)o3)n2)cc1          %                 -3.96
15           Cc1ccc(C(=O)Nc2nc(=O)n(C)s2)cc1          %                  4.51
16           O=C(CSc1ccccc1C(=O)O)NCc1ccccc1          %                  17.3
17  COC(=O)c1cc(C)sc1NC(=O)C1C2C=CC(CC2)C1C(=O)O (stereo not given)          %                    47
18  CCOC(=O)c1c(NC(=O)C2C3C=CC(CC3)C2C(=O)O)sc(C)c1C (stereo not given)          %                  46.5
19  COC(=O)c1ccc(COc2ccc(C)cc2[N+](=O)[O-])o1          %                  5.81
20               Cc1cc(Cl)cc(Cl)c1OCCCCN(C)C          %                   1.1
21         CCOC(=O)c1c(NC(=O)C2CC2)sc(C)c1CC          %                 -1.68
22            O=C(O)CCC(=O)N1CCC[C@H]1C(=O)O          %                  3.33
23  CC(C)OC(=O)c1cc(C(=O)c2cc(Cl)ccc2O)coc1=N          %                 -2.46
24                     C=CCNC(=O)CCCc1ccccc1          %                  11.4
